List of MIC values.
# Tested on: C. guilliermondii (12,204)
# test: Broth microdilution antifungal susceptibility (CLSI M27-A3), MIC and MFC
# Assay type: cell-based
# condition-notes: Meyerozyma guilliermondii; C. guilliermondii (12,204), clinical isolate; 48 h; read-out: MIC
# Protocol: The antifungal activity of the EO and its main components was evaluated against reference strains and clinical isolates of Candida. […] Following a 24-48 h incubation at 37°C, the absorbance of the plates was measured at 540 nm using a VERSA Max microplate reader (Molecular Devices, Sunnyvale, CA, United States) for spectrophotometric analysis. […]
reported-metric: MIC

[[record]]
compound = "CC1CCC(C(C)C)C(=O)C1 (centres unmarked)"
reported_metric = "MIC"
meas_value = "128 µg/mL"

[[record]]
compound = "C[C@@H]1[C@H](O)[C@@H](C)/C=C/C=C/C=C/C=C/C=C/C=C/C=C/[C@H](O[C@@H]2O[C@H](C)[C@@H](O)[C@H](N)[C@@H]2O)C[C@@H]2O[C@](O)(C[C@@H](O)C[C@@H](O)[C@H](O)CC[C@@H](O)C[C@@H](O)CC(=O)O[C@H]1C)C[C@H](O)[C@H]2C(=O)O [C1, amphotericin B, reference compound]"
reported_metric = "MIC"
meas_value = "64 µg/mL"

[[record]]
compound = "CCC(C)n1ncn(-c2ccc(N3CCN(c4ccc(OCC5COC(Cn6cncn6)(c6ccc(Cl)cc6Cl)O5)cc4)CC3)cc2)c1=O (centres unmarked) [C3, itraconazole, reference compound]"
reported_metric = "MIC"
meas_value = "2 µg/mL"

[[record]]
compound = "OC(Cn1cncn1)(Cn1cncn1)c1ccc(F)cc1F [C2, fluconazole, reference compound]"
reported_metric = "MIC"
meas_value = "0.5 µg/mL"

[[record]]
compound = "Cc1ccc(C(C)C)c(O)c1"
reported_metric = "MIC"
meas_value = "32 µg/mL"


###

Form field: MIC (one value per entry).
# Tested on: C. lusitaniae (2305)
# test: Broth microdilution antifungal susceptibility (CLSI M27-A3), MIC and MFC
# Format: cell-based
# condition-notes: Clavispora lusitaniae; C. lusitaniae (2305), clinical isolate; 48 h; read-out: MIC
reported-metric: MIC (mg/L)

[[record]]
compound = "CCC(C)n1ncn(-c2ccc(N3CCN(c4ccc(OCC5COC(Cn6cncn6)(c6ccc(Cl)cc6Cl)O5)cc4)CC3)cc2)c1=O (centres unmarked) [C3, itraconazole, reference compound]"
reported_metric = "MIC"
meas_value = 4

[[record]]
compound = "C[C@@H]1[C@H](O)[C@@H](C)/C=C/C=C/C=C/C=C/C=C/C=C/C=C/[C@H](O[C@@H]2O[C@H](C)[C@@H](O)[C@H](N)[C@@H]2O)C[C@@H]2O[C@](O)(C[C@@H](O)C[C@@H](O)[C@H](O)CC[C@@H](O)C[C@@H](O)CC(=O)O[C@H]1C)C[C@H](O)[C@H]2C(=O)O [C1, amphotericin B, reference compound]"
reported_metric = "MIC"
meas_value = 64

[[record]]
compound = "CC1CCC(C(C)C)C(=O)C1 (centres unmarked)"
reported_metric = "MIC"
meas_value = 64

[[record]]
compound = "OC(Cn1cncn1)(Cn1cncn1)c1ccc(F)cc1F [C2, fluconazole, reference compound]"
reported_metric = "MIC"
meas_value = 2

[[record]]
compound = "Cc1ccc(C(C)C)c(O)c1"
reported_metric = "MIC"
meas_value = 32

